meta.source: ChEMBL document CHEMBL5291721

target: Adenosine receptor A3 (Homo sapiens); also: assay procedure not described here
Sequence (P0DMS8 whole entry): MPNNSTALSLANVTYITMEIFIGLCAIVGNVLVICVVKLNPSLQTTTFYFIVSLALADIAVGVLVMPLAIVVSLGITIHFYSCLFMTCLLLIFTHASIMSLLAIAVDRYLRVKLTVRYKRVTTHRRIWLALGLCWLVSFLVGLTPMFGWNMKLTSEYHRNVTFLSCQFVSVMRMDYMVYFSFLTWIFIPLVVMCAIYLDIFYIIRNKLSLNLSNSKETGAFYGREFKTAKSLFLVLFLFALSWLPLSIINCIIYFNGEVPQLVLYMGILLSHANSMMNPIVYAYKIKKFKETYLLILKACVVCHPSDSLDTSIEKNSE
measured.property: AC50

>>> val("OCc1ccccc1")
"> 30 µM"
>>> val("CC(C)Cc1ccc(C(C)C(=O)OCc2ccccn2)cc1 (centres undefined)")
"15.8 µM"
>>> val("CN1C(C(=O)Nc2ccccn2)=C(OC(=O)/C=C/c2ccccc2)c2ccccc2S1(=O)=O [PIROXICAM CINNAMATE]")
"> 30 µM"
>>> val("CN1CCC(N(Cc2cccs2)c2ccccc2)CC1")
"> 30 µM"
>>> val("CN(C)CCC=C1c2ccccc2CCc2ccccc21")
"> 30 µM"
>>> val("O=C1[C@@H]2[C@H]3CC[C@H](C3)[C@@H]2C(=O)N1C[C@@H]1CCCC[C@H]1CN1CCN(c2nsc3ccccc23)CC1")
"6.36 µM"
>>> val("Cn1c(CCCC(=O)O)nc2cc(N(CCCl)CCCl)ccc21")
"> 30 µM"
>>> val("CC(C)(Oc1ccc(C(=O)c2ccc(Cl)cc2)cc1)C(=O)O")
"> 30 µM"
>>> val("COCC(=O)O[C@]1(CCN(C)CCCc2nc3ccccc3[nH]2)CCc2cc(F)ccc2[C@@H]1C(C)C")
"14.3 µM"

* * *

biological target: Beta-1 adrenergic receptor (Homo sapiens, UniProt P08588); type: functional; also: assay procedure not described here
Sequence (P08588 whole entry): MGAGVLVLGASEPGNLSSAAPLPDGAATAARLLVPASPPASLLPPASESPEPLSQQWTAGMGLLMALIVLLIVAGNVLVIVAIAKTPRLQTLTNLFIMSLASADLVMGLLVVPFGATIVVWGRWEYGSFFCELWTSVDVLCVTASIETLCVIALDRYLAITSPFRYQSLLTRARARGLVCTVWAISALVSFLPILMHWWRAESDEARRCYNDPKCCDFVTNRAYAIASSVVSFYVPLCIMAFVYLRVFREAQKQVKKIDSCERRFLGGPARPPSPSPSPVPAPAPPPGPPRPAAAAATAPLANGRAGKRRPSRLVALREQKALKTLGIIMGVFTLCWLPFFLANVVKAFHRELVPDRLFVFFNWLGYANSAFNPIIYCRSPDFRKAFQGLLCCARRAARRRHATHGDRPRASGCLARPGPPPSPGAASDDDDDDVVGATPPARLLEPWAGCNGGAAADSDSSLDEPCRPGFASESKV
measured.property: AC50

>>> val("CCN(CC)CCCN(c1ccccc1)C1Cc2ccccc2C1")
"> 30 µM"
>>> val("Nc1nnc(-c2cccc(Cl)c2Cl)c(N)n1")
"> 10 µM"
>>> val("Nc1nc(Cl)nc2c1ncn2[C@@H]1O[C@H](CO)[C@@H](O)[C@@H]1F")
"> 30 µM"
>>> val("CN1CC2c3ccccc3Oc3ccc(Cl)cc3C2C1 (stereo not drawn)")
"> 30 µM"
>>> val("C[C@H](CCC(=O)O)[C@H]1CC[C@H]2[C@@H]3[C@H](O)C[C@@H]4C[C@H](O)CC[C@]4(C)[C@H]3CC[C@]12C")
"> 30 µM"
>>> val("CCCCOC(=O)C(=O)Nc1cccc(-c2nnn[nH]2)c1")
"> 30 µM"
>>> val("Cc1c(C)c2c(c(C)c1O)CCC(C)(COc1ccc(CC3SC(=O)NC3=O)cc1)O2 (stereo not drawn)")
"20 µM"
>>> val("CC1Cc2ccccc2N1NC(=O)c1ccc(Cl)c(S(N)(=O)=O)c1 (stereo not drawn) [INDAPAMIDE]")
"> 10 µM"
>>> val("CN(C)CCOCC(=O)NC12CC3CC(CC(C3)C1)C2")
"> 30 µM"
>>> val("COc1ccc(C(Cl)=C(c2ccc(OC)cc2)c2ccc(OC)cc2)cc1")
"> 30 µM"
>>> val("NCCCCCC(=O)O")
"> 10 µM"
>>> val("CCC1(CC)C(=O)NC(=O)N(C)C1=O")
"> 10 µM"
>>> val("CC1=C(C(=O)O)N2C(=O)[C@@H](NC(=O)[C@H](N)C3=CCC=CC3)[C@H]2SC1")
"> 30 µM"
>>> val("C[C@]12CCC(=O)C=C1CC[C@H]1[C@@H]3CC[C@](O)(C(=O)CO)[C@@]3(C)C[C@H](O)[C@@]12F")
"> 10 µM"
>>> val("N=C(N)NC(=O)Cc1c(Cl)cccc1Cl")
"> 10 µM"
>>> val("CCC(=O)[C@@]1(C)[C@H](C)C[C@H]2[C@@H]3CCC4=CC(=O)C=C[C@]4(C)[C@H]3[C@@H](O)C[C@@]21C [RIMEXOLONE]")
"> 10 µM"
>>> val("Oc1cc(Cl)ccc1Oc1ccc(Cl)cc1Cl")
"> 30 µM"
>>> val("COc1cccc2c1C(=O)c1c(O)c3c(c(O)c1C2=O)C[C@@](O)(C(=O)CO)C[C@@H]3O[C@H]1C[C@H](N)[C@H](O)[C@H](C)O1")
"> 30 µM"
